assay_details: A549 cell viability effects, profiling panel, calcein-AM fluorescence, 48 h, basal (AID 1162); also: test concentration not given here
condition: higher = more signal
label 1 means recorded z-score is 0.05 or above; label 0 means it is below 0.05.

# example entries with known answers
molecule | category
COC(=O)[C@]1(CO)N=C(c2ccc(OCCCO)cc2)O[C@@H]1c1ccccc1N=[N+]=[N-] | label 0
COc1ccc(O[C@H]2C=C[C@@H](c3ccccc3)O[C@@H]2COC(=O)CCC(C)=NOCC[C@@H]2C=C[C@H](OC(C)=O)[C@@H](COC(C)=O)O2)cc1 | label 0
O=C1[C@H]2[C@H]3[C@H](O)[C@H](O)CC(=NOC[C@@H](O)COCc4ccco4)[C@H]3CC[C@H]2C(=O)N1C1CCCCC1 | label 0
Cc1cc2c(nc1C)CCCN2CC(O)CN1CCN(C)CC1 (stereo unspecified) | label 1

Problem: Item `C[C@@H](c1ccccc1)N1C(=O)[C@H]2[C@H]3[C@H](O)[C@H](O)CC(=NOC[C@@H](O)COCc4ccco4)[C@@H]3CC[C@H]2C1=O` with z-score of 0.05 or above?
Result: label 1

Problem: Quick check, z-score >= 0.05? COC(=O)C1(C)C=C2C(=C(c3ccccc3)C(=O)C2C)CN1 (stereo unspecified)
Result: label 0

---

Here the recorded composite z-score is given for each entry.
assay_details: small-molecule binders of probe aNOTCH2, primary screen, biochemical, small-molecule microarray, 635/667 nm fluorescence (AID 1121);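 also: score merges feature fluorescence read at 667 nm with its signal to noise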
condition: higher = more signal
The answer should be a number; do not append a unit.

Solved entries (count: 2):
compound | recorded_result
CS(=O)(=O)CCOC(=O)C1=CC(CCCO)=CC(c2cccs2)N(Cc2cccc(OC(F)(F)F)c2)C=C1C(=O)OCCS(C)(=O)=O (stereo not drawn) | -0.0358
COCCCNC(=O)[C@]1(CCC(=O)OC(C)(C)C)N=C(c2ccc(OCCCO)cc2)O[C@@H]1c1ccccc1N=[N+]=[N-] | -0.092

Kindly review the next compound as well.
Entry `O=C1[C@H]2[C@H]3[C@H](O)[C@H](O)CC(=NO[C@@H]4O[C@H](CO)[C@@H](O)[C@H](O)[C@H]4O)[C@@H]3CC[C@H]2C(=O)N1Cc1ccccc1` , composite z-score reported as -0.0623

---

Tested on: Plasmodium falciparum Sir2 (PF13_0152, Sir2A)
assay_details: pfSir2 binders on small-molecule microarrays, primary screen, biochemical, small-molecule microarray, 635 nm fluorescence (AID 1098);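 also: score merges spot fluorescence intensity with its signal-to-noise ratio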
condition: small-molecule microarray binding, fluorescence 635 nm; higher = more signal
Record yes (1) whenever composite z-score is at 0.2 or higher; record no (0) when lower.

Here's what some known entries look like.
compound | category
CO[C@H]1COC(=O)CC=C[C@H](C)[C@@H](NS(=O)(=O)c2ccc(C)cc2)COC(=O)CC=C[C@@H]1C | yes (1)
CC(C)(C)N1C(=O)[C@H]2[C@H]3[C@H](O)[C@H](O)CC(=NOCc4ccccc4)[C@@H]3CC[C@H]2C1=O | yes (1)
CCOC(=O)NN=C1C[C@@H](O)[C@@H](O)[C@@H]2[C@@H]3C(=O)N(C4CCCCC4)C(=O)[C@@H]3CC[C@@H]12 | no (0)
O=C1NC(=O)C2C1C=CC(C(O)Cc1ccccc1)N2Nc1ccccn1 (stereo not drawn) | no (0)
CC(CCC(=O)OC[C@H]1O[C@H](C#Cc2ccccc2)C=C[C@@H]1Oc1ccc(C)cc1)=NOC[C@@H](O)[C@H]1O[C@@H]2OC(C)(C)O[C@@H]2[C@H]1O | yes (1)
COC(=O)C1=C(C)N(Cc2ccccc2)[C@]23O[C@](C(=O)OC)(C(=O)N2[C@@H]1c1ccccc1)[C@H]1CCOC(=O)[C@H]13 | yes (1)
CCCC[C@@H](O)C1=C(C)C[C@H]2C(=O)N(Cc3ccccc3)C(=O)[C@H]2[C@H]1CO | yes (1)

Problem: Please tell me: is the compound `CC(C)[C@H](NC(=O)OC(C)(C)C)[C@@H](O)CC(=O)OC(C)(C)C` at or over 0.2 in terms of composite z-score?
Result: no (0)
